- measured.on: RARγ (Homo sapiens)
- Construct: gal4 (fusion partner); expressed in transfected cells; host or cells: COS-7
- assay.text: Transactivation assay for RAR gamma (gal4-RAR fusion, luciferase reporter, COS-7 cells)
- Format: cell-based
- experimental.context: ratio of test compound EC50 to that of atRA; inactive = no agonist action at the highest concentration tested
property.measured: RARγ activity ratio

Previously resolved entries follow.
{"columns": ["compound", "measured.on", "RARγ activity ratio"],
 "data": [
  ["CCOc1c(Br)cc(NC(=O)c2ccc(C(=O)O)cc2)cc1Br [AAA-014]", "RARγ (Homo sapiens)", "inactive"],
  ["CCOc1cc(C(=O)Nc2ccc(C(=O)O)cc2)cc(OCC)c1Br [AAA-106]", "RARγ (Homo sapiens)", 2326],
  ["CCOc1c(Cl)cc(C(=O)Nc2ccc(C(=O)O)cc2)cc1OC [AAA-084]", "RARγ (Homo sapiens)", ">1400"],
  ["COc1c(Cl)cc(C(=O)Nc2ccc(C(=O)O)cc2)cc1OC1CCC1 [AAA-098]", "RARγ (Homo sapiens)", 2955],
  ["CCOc1c(Cl)cc(C(=O)Nc2ccc(C(=O)O)c(Cl)c2)cc1Cl [AAA-018]", "RARγ (Homo sapiens)", "inactive"]
]}

Would you kindly share the measured RARγ activity ratio for CCOc1c(Cl)cc(C(=O)Nc2ccc(C(=O)O)cc2)cc1Cl [AAA-029] ?
inactive

Would you kindly share the measured RARγ activity ratio for O=C(O)c1ccc(NC(=O)c2cc(Cl)c(OCc3ccncc3)c(Cl)c2)cc1 [AAA-012] ?
inactive

Would you kindly share the measured RARγ activity ratio for CCOc1c(Cl)cc(C(=O)Nc2ccc(C(=O)O)nc2)cc1Cl [AAA-026] ?
inactive

###

- measured.on: RARα (Homo sapiens)
- Construct: gal4 (fusion partner); expressed in transfected cells; host or cells: COS-7
- assay.text: Transactivation assay for RAR alpha (gal4-RAR fusion, luciferase reporter, COS-7 cells)
- Type: cell-based
- experimental.context: fold-selectivity for RARα over RARβ
- Description: Transcriptional transactivation assays were performed with gal4 fusion receptor constructs, created using each of the RAR ligand binding domains, co-transfected with the pFR-luc (Stratagene™) reporter construct in COS-7 cells. Briefly, on day 1, 96 well plates were seeded with 8000 cells per well then left to recover overnight. On day 2, the cells were co-transfected with 100 ng of reporter plasmid and 10 ng of the appropriate receptor plasmid per well using lipofectamine (Invitrogen™). […]
property.measured: RARα/RARβ ratio (*)

Previously resolved entries follow.
{"columns": ["compound", "RARα/RARβ ratio (*)"],
 "data": [
  ["CCOc1c(Cl)cc(C(=O)Nc2ccc(C(=O)O)cc2)cc1OC [AAA-024]", 12.2],
  ["COc1c(OC(C)C)cc(C(=O)Nc2ccc(C(=O)O)c(C)c2)cc1OC(C)C", 22],
  ["Cc1cc(NC(=O)c2cc(Cl)c(OC(C)C)c(C(F)(F)F)c2)ccc1C(=O)O", 55]
]}

(1) CCOc1c(Br)cc(C(=O)Nc2ccc(C(=O)O)c(C)c2)cc1C(F)(F)F
(2) CCOc1c(Cl)cc(C(=O)Nc2ccc(C(=O)O)c(F)c2)cc1OC(C)C
(3) CCCOc1c(Cl)cc(C(=O)Nc2ccc(C(=O)O)cc2)cc1Cl
(4) CCOc1c(Cl)cc(C(=O)Nc2ccc(C(=O)O)c(F)c2)cc1C(F)(F)F
(5) COc1c(Cl)cc(C(=O)Nc2ccc(C(=O)O)cc2)cc1C(F)(F)F
Let's sort these by RARα/RARβ ratio (*), smallest first. Go ahead? Reply with the item labels sorted in the order that was asked for.
3, 1, 4, 2, 5

(A) COc1c(Cl)cc(C(=O)Nc2ccc(C(=O)O)cc2)cc1OC1CCC1
(B) COc1c(OC(C)C)cc(C(=O)Nc2ccc(C(=O)O)cc2)cc1OC(C)C
(C) CC(C)Oc1cc(C(=O)Nc2ccc(C(=O)O)c(O)c2)cc(OC(C)C)c1Br
Let's sort these by RARα/RARβ ratio (*), smallest first. Go ahead? Reply with the item labels sorted in the order that was asked for.
B, A, C
(B: 8, A: 36, C: 396)

###

- measured.on: RARγ (Homo sapiens, UniProt P13631)
- Construct: gal4 (fusion partner); expressed in transfected cells; host or cells: COS-7
- Sequence (P13631 185-419 limits assumed): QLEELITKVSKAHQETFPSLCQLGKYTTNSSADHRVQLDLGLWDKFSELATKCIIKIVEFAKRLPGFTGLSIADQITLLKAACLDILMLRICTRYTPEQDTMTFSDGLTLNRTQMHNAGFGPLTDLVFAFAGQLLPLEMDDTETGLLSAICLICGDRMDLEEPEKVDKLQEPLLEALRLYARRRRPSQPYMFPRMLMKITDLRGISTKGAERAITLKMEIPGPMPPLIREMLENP
- assay.text: Transactivation assay for RAR gamma (gal4-RAR fusion, luciferase reporter, COS-7 cells)
- Type: cell-based
- experimental.context: ratio of test compound EC50 to that of atRA; inactive = no agonist action at the highest concentration tested
property.measured: RARγ activity ratio

Previously resolved entries follow.
{"columns": ["smiles.repr", "measured.on", "test.value"],
 "data": [
  ["Cc1cc(NC(=O)c2cc(Cl)c(OC(C)C)c(OC(C)C)c2)ccc1C(=O)O", "RARγ (Homo sapiens, UniProt P13631)", 2859],
  ["CC(C)(C)Oc1cc(C(=O)Nc2ccc(C(=O)O)cc2)cc(Cl)c1OC(C)(C)C", "RARγ (Homo sapiens, UniProt P13631)", 162],
  ["COc1c(Cl)cc(C(=O)Nc2ccc(C(=O)O)c(F)c2)cc1OC(C)C", "RARγ (Homo sapiens, UniProt P13631)", 117857]
]}

(I) CCOc1cc(C(=O)Nc2ccc(C(=O)O)c(F)c2)cc(OC(CC)CC)c1Cl
(II) COc1c(Cl)cc(C(=O)Nc2ccc(C(=O)O)cc2)cc1C(F)(F)F
(III) O=C(O)c1ccc(NC(=O)c2cc(Cl)c(OCc3ccccc3)c(Cl)c2)cc1
(IV) COc1c(Cl)cc(C(=O)Nc2ccc(C(=O)O)cc2)cc1OCC(C)(C)C
(V) CCOc1c(Cl)cc(C(=O)Nc2ccc(C(=O)O)c(C(F)(F)F)c2)cc1Cl
Sort by RARγ activity ratio, descending. Reply with the item labels sorted in the order that was asked for.
II, I, III, IV, V
(II: 87000, I: 55172, III: 3770, IV: 941, V: 148)

###

- measured.on: RARγ (Homo sapiens)
- Construct: gal4 (fusion partner); expressed in transfected cells; host or cells: COS-7
- assay.text: Transactivation assay for RAR gamma (gal4-RAR fusion, luciferase reporter, COS-7 cells)
- Assay type: cell-based
- experimental.context: ratio of test compound EC50 to that of atRA; inactive = no agonist action at the highest concentration tested
- Description: Transcriptional transactivation assays were performed with gal4 fusion receptor constructs, created using each of the RAR ligand binding domains, co-transfected with the pFR-luc (Stratagene™) reporter construct in COS-7 cells. Briefly, on day 1, 96 well plates were seeded with 8000 cells per well then left to recover overnight. On day 2, the cells were co-transfected with 100 ng of reporter plasmid and 10 ng of the appropriate receptor plasmid per well using lipofectamine (Invitrogen™). […]
property.measured: RARγ activity ratio

(I) Cc1cc(NC(=O)c2cc(Cl)c(OC(C)(C)C)c(OC(C)(C)C)c2)ccc1C(=O)O [AAA-049]
(II) CCOc1c(Cl)cc(C(=O)Nc2ccc(C(=O)O)c(C)c2)cc1OC1CCC1 [AAA-096]
Given the two records I and II , choose the one whose RARγ activity ratio value is lower. Lab log: write the label of the selected item as the result.
I

(I) CCC(CC)Oc1cc(C(=O)Nc2ccc(C(=O)O)c(F)c2)cc(Cl)c1OC [AAA-103]
(II) CC(C)Oc1c(Cl)cc(C(=O)Nc2ccc(C(=O)O)c(F)c2)cc1C(F)(F)F [AAA-069]
Sort I and II by RARγ activity ratio descending and give the first. Lab log: write the label of the selected item as the result.
II
(II: 3380, I: 583)

(A) CCOc1c(OC(C)C)cc(C(=O)Nc2ccc(C(=O)O)c(F)c2)cc1OC(C)C [AAA-064]
(B) COc1c(Cl)cc(C(=O)Nc2ccc(C(=O)O)c(C)c2)cc1C(F)(F)F [AAA-041]
Sort A and B by RARγ activity ratio descending and give the first. Lab log: write the label of the selected item as the result.
B
(B: 31340, A: 1977)

###

- measured.on: RARα (Homo sapiens, UniProt P10276)
- Construct: gal4 (fusion partner); expressed in transfected cells; host or cells: COS-7
- Sequence (P10276 183-417 limits assumed): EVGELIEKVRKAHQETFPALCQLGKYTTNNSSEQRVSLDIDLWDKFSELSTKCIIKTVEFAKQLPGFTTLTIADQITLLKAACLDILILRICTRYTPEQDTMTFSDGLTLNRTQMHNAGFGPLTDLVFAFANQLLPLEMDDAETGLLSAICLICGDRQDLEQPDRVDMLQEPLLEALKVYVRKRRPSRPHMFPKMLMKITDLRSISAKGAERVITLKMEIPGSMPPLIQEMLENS
- assay.text: Transactivation assay for RAR alpha (gal4-RAR fusion, luciferase reporter, COS-7 cells)
- Assay type: cell-based
- experimental.context: fold-selectivity for RARα over RARβ
property.measured: RARα/RARβ ratio (*)

Previously resolved entries follow.
{"columns": ["smiles.repr", "measured.on", "property.measured", "test.value"],
 "data": [
  ["COc1cc(C(=O)Nc2ccc(C(=O)O)cc2)cc(OC(C)C)c1Cl", "RARα (Homo sapiens, UniProt P10276)", "RARα/RARβ ratio (*)", 47],
  ["COCCOc1cc(C(=O)Nc2ccc(C(=O)O)c(F)c2)cc(Cl)c1OC", "RARα (Homo sapiens, UniProt P10276)", "RARα/RARβ ratio (*)", 535],
  ["Cc1cc(NC(=O)c2cc(Cl)c(OC3CCCC3)c(OC3CCCC3)c2)ccc1C(=O)O", "RARα (Homo sapiens, UniProt P10276)", "RARα/RARβ ratio (*)", 43]
]}

(P) CCOc1c(F)cc(C(=O)Nc2ccc(C(=O)O)cc2)cc1F
(Q) CCOc1c(Cl)cc(C(=O)Nc2ccc(C(=O)O)c(Cl)c2)cc1Cl
Given the two records P and Q , choose the one whose RARα/RARβ ratio (*) value is lower. Lab log: write the label of the selected item as the result.
P

(A) CC(C)Oc1cc(C(=O)Nc2ccc(C(=O)O)cc2)cc(OC(C)C)c1F
(B) Cc1cc(NC(=O)c2cc(Br)c(OC(C)C)c(Br)c2)ccc1C(=O)O
Sort A and B by RARα/RARβ ratio (*) descending and give the first. Lab log: write the label of the selected item as the result.
A

(P) CCOc1c(Cl)cc(C(=O)Nc2ccc(C(=O)O)c(C)c2)cc1C(F)(F)F
(Q) CC(C)Oc1cc(C(=O)Nc2ccc(C(=O)O)c(F)c2)cc(OC(C)C)c1Br
Sort P and Q by RARα/RARβ ratio (*) descending and give the first. Lab log: write the label of the selected item as the result.
Q

(I) COc1c(Cl)cc(C(=O)Nc2ccc(C(=O)O)c(F)c2)cc1OC(C)C
(II) CCC(CC)Oc1cc(C(=O)Nc2ccc(C(=O)O)c(F)c2)cc(Cl)c1OC
(III) CCOc1c(Cl)cc(C(=O)Nc2ccc(C(=O)O)c(C(F)(F)F)c2)cc1Cl
(IV) O=C(O)c1ccc(NC(=O)c2cc(Cl)c(OC3CCCC3)c(OC3CCCC3)c2)cc1
(V) CCOc1cc(C(=O)Nc2ccc(C(=O)O)c(F)c2)cc(OC(CC)CC)c1Cl
Let's sort these by RARα/RARβ ratio (*), smallest first. Go ahead? Reply with the item labels sorted in the order that was asked for.
III, II, IV, V, I
(III: 1.5, II: 21, IV: 32, V: 46, I: 609)
